Test system: 857933-349-R-J2-PDC complex spheroid viability
Test: Anticancer human tumor 857933-349-R-J2-PDC patient-derived colon adenocarcinoma cell line growth inhibition [POLQ]
Settings: second compound 3.16 µM; first compound 0.001 µM; stronger effect = lower value
endpoint: viability, T/C (%)
Provide the reading as a plain figure in %.

Please review the following examples before continuing.
# compound, endpoint, valueReported
data = [
    ("CC[C@@]1(O)C(=O)OCc2c1cc1n(c2=O)Cc2cc3c(CN(C)C)c(O)ccc3nc2-1 + Nc1ccc(C#CCN(C(=O)Cc2ncc(C(F)(F)F)cc2C(F)(F)F)c2ccc(F)cc2)nn1", "viability, T/C", 96),
    ("CC[C@@]1(O)C(=O)OCc2c1cc1n(c2=O)Cc2cc3c(CN(C)C)c(O)ccc3nc2-1 + COC1C(OC(N)=O)C(O)C(Oc2ccc3c(O)c(NC(=O)c4ccc(O)c(CC=C(C)C)c4)c(=O)oc3c2C)OC1(C)C", "viability, T/C", 102),
]

# context switch: different compound, same viability, T/C
Ask | // query viability, T/C value for entry Cn1ncnc1[C@H]1c2n[nH]c(=O)c3cc(F)cc(c23)N[C@@H]1c1ccc(F)cc1 + Cc1cccc(N(C)C(=O)C2C(O)CCN2c2nc(C)cc(C(F)(F)F)c2C#N)c1
Reply | 116

* * *

System: 857933-349-R-J2-PDC complex spheroid viability
Assay: Anticancer human tumor 857933-349-R-J2-PDC cell line growth inhibition [POLQ];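 note: spheroids exposed to compounds for seven days before readout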
Conditions: second compound 3.16 µM; first compound 0.1 µM; stronger effect = lower value
endpoint: viability, T/C (%)
Provide the reading as a plain figure in %.

Please review the following examples before continuing.
# compound, quantityUnit, valueReported
measured = [
    ("COc1cc(C2c3cc4c(cc3C(OC3OC5COC(C)OC5C(O)C3O)C3COC(=O)C23)OCO4)cc(OC)c1O (stereo not drawn) + Cc1cccc(N(C)C(=O)C2C(O)CCN2c2nc(C)cc(C(F)(F)F)c2C#N)c1", "%", 80.5),
    ("CC(C)n1c(=O)n(C)c2cnc3cc(F)c(-c4ccc(OCCCN5CCCCC5)nc4)cc3c21 + Nc1ccc(C#CCN(C(=O)Cc2ncc(C(F)(F)F)cc2C(F)(F)F)c2ccc(F)cc2)nn1", "%", 99.9),
]

# context switch: different compound, same viability, T/C
Ask | // query viability, T/C value for entry CCCS(=O)(=O)Nc1ccc(F)c(C(=O)c2c[nH]c3ncc(-c4ccc(Cl)cc4)cc23)c1F + COC1C(OC(N)=O)C(O)C(Oc2ccc3c(O)c(NC(=O)c4ccc(O)c(CC=C(C)C)c4)c(=O)oc3c2C)OC1(C)C
Reply | 117

* * *

# viability, T/C annotations
Tested on: 857933-349-R-J2-PDC complex spheroid viability
Assay: Anticancer human tumor 857933-349-R-J2-PDC cell line growth inhibition [POLQ];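 note: spheroids exposed to compounds for seven days before readout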
Details: second compound 0.0316 µM; first compound 0.1 µM; stronger effect = lower value
Procedure: Multicellular complex tumor spheroid response to Polymerase (POL) inhibitors (novobiocin, ART-558, RP6685) in combination with a variety of drugs and investigational agents in selected tumor cell lines The POL inhibitors (novobiocin, ART-558, and RP6685) were evaluated both individually and in combination with standard of care and investigational anticancer small molecules within a complex spheroid model of solid tumors. . […]
Provide the reading as a plain figure in %.

Please review the following examples before continuing.
# compound, endpoint, valueReported
records = [
    ("CC[C@@]1(O)C(=O)OCc2c1cc1n(c2=O)Cc2cc3c(CN(C)C)c(O)ccc3nc2-1 + COC1C(OC(N)=O)C(O)C(Oc2ccc3c(O)c(NC(=O)c4ccc(O)c(CC=C(C)C)c4)c(=O)oc3c2C)OC1(C)C", "viability, T/C", 50.7),
    ("O=C(c1cc(Cc2n[nH]c(=O)c3ccccc23)ccc1F)N1CCN(C(=O)C2CC2)CC1 + Nc1ccc(C#CCN(C(=O)Cc2ncc(C(F)(F)F)cc2C(F)(F)F)c2ccc(F)cc2)nn1", "viability, T/C", 109),
    ("C#Cc1c(F)ccc2cc(O)cc(-c3ncc4c(N5CC6CCC(C5)N6)nc(OCC56CCCN5CC(F)C6)nc4c3F)c12 (stereo not given) + Nc1ccc(C#CCN(C(=O)Cc2ncc(C(F)(F)F)cc2C(F)(F)F)c2ccc(F)cc2)nn1", "viability, T/C", 99.5),
    ("COc1cc(C2c3cc4c(cc3C(OC3OC5COC(C)OC5C(O)C3O)C3COC(=O)C23)OCO4)cc(OC)c1O (stereo not given) + Nc1ccc(C#CCN(C(=O)Cc2ncc(C(F)(F)F)cc2C(F)(F)F)c2ccc(F)cc2)nn1", "viability, T/C", 64.8),
]

# context switch: different compound, same viability, T/C
Ask | // query viability, T/C value for entry COc1cccc(OCCCN)c1-c1cc(Nc2cnc(C#N)cn2)n[nH]1 + COC1C(OC(N)=O)C(O)C(Oc2ccc3c(O)c(NC(=O)c4ccc(O)c(CC=C(C)C)c4)c(=O)oc3c2C)OC1(C)C
Reply | 48.8

* * *

Tested on: 857933-349-R-J2-PDC complex spheroid viability
Assay: Anticancer human tumor 857933-349-R-J2-PDC cell line growth inhibition [POLQ]; active = viability on the fitted dose curve at most 10% of control; inactive = the rest;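 note: spheroids exposed to compounds for seven days before readout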
Details: second compound 1 µM; first compound 3.16 µM
// allowed return values: class 1 (active), class 0 (inactive)

# molecule, labelClass
measured = [
    ("CC1COCCN1c1cc(C2(S(C)(=N)=O)CC2)nc(-c2ccnc3[nH]ccc23)n1 (stereo not given) + Cc1cccc(N(C)C(=O)C2C(O)CCN2c2nc(C)cc(C(F)(F)F)c2C#N)c1", "class 0"),
    ("COc1cccc2c1C(=O)c1c(O)c3c(c(O)c1C2=O)CC(O)(C(=O)CO)CC3OC1CC(N)C(O)C(C)O1 (stereo not given) + COC1C(OC(N)=O)C(O)C(Oc2ccc3c(O)c(NC(=O)c4ccc(O)c(CC=C(C)C)c4)c(=O)oc3c2C)OC1(C)C", "class 1"),
    ("CC1COCCN1c1cc(-c2ccnn2C)c2ccnc(-c3ccn[nH]3)c2n1 (stereo not given) + Nc1ccc(C#CCN(C(=O)Cc2ncc(C(F)(F)F)cc2C(F)(F)F)c2ccc(F)cc2)nn1", "class 0"),
    ("O=C(c1cc(Cc2n[nH]c(=O)c3ccccc23)ccc1F)N1CCN(C(=O)C2CC2)CC1 + COC1C(OC(N)=O)C(O)C(Oc2ccc3c(O)c(NC(=O)c4ccc(O)c(CC=C(C)C)c4)c(=O)oc3c2C)OC1(C)C", "class 0"),
]

Ask | Query: recorded result category for CNCc1ccc(-c2[nH]c3cc(F)cc4c3c2CCNC4=O)cc1 + Cc1cccc(N(C)C(=O)C2C(O)CCN2c2nc(C)cc(C(F)(F)F)c2C#N)c1 in this test
Reply | class 0

* * *

System: 857933-349-R-J2-PDC complex spheroid viability
Assay: Anticancer human tumor 857933-349-R-J2-PDC cell line growth inhibition [POLQ];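 note: spheroids exposed to compounds for seven days before readout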
Conditions: second compound 1 µM; first compound 0.0316 µM; stronger effect = lower value
# viability, T/C annotations
Provide the reading as a plain figure in %.

Please review the following examples before continuing.
# compound, valueReported
rows = [
    ("Nc1ccn(C2OC(CO)C(O)C2(F)F)c(=O)n1 (stereo not drawn) + Cc1cccc(N(C)C(=O)C2C(O)CCN2c2nc(C)cc(C(F)(F)F)c2C#N)c1", 78.3),
    ("C=CCn1c(=O)c2cnc(Nc3ccc(N4CCN(C)CC4)cc3)nc2n1-c1cccc(C(C)(C)O)n1 + Cc1cccc(N(C)C(=O)C2C(O)CCN2c2nc(C)cc(C(F)(F)F)c2C#N)c1", 108),
]

Ask | // query viability, T/C value for entry CC1COCCN1c1cc(-c2ccnn2C)c2ccnc(-c3ccn[nH]3)c2n1 (stereo not drawn) + COC1C(OC(N)=O)C(O)C(Oc2ccc3c(O)c(NC(=O)c4ccc(O)c(CC=C(C)C)c4)c(=O)oc3c2C)OC1(C)C
Reply | 58.1

* * *

Tested on: 857933-349-R-J2-PDC complex spheroid viability
Assay: Anticancer human tumor 857933-349-R-J2-PDC cell line growth inhibition [POLQ];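 note: spheroids exposed to compounds for seven days before readout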
Conditions: curve of first compound; second compound 1 µM
pIC50: −log10 of the molar value.
endpoint: pIC50

# compound, pIC50
data = [
    ("O=c1[nH]cc(F)c(=O)[nH]1 + COC1C(OC(N)=O)C(O)C(Oc2ccc3c(O)c(NC(=O)c4ccc(O)c(CC=C(C)C)c4)c(=O)oc3c2C)OC1(C)C", 5.65),
    ("COc1ccc([C@@H](O)c2cc(-c3ncnc4cc(N5CCOCC5)ccc34)c(F)cc2Cl)nn1 + Nc1ccc(C#CCN(C(=O)Cc2ncc(C(F)(F)F)cc2C(F)(F)F)c2ccc(F)cc2)nn1", "< 5.00"),
]

# context switch: different compound, same pIC50
Ask | // query pIC50 value for entry C#Cc1c(F)ccc2cc(O)cc(-c3ncc4c(N5CC6CCC(C5)N6)nc(OCC56CCCN5CC(F)C6)nc4c3F)c12 (stereo not drawn) + Nc1ccc(C#CCN(C(=O)Cc2ncc(C(F)(F)F)cc2C(F)(F)F)c2ccc(F)cc2)nn1
Reply | < 5.00
